This collection of values is drawn from patent US12581252B2.

Recorded measurements of pIC50, one per entry
# target system: H1047R PIK3CA enzyme (Homo sapiens, UniProt P42336, H1047R)
# Sequence (P42336 whole entry H1047R): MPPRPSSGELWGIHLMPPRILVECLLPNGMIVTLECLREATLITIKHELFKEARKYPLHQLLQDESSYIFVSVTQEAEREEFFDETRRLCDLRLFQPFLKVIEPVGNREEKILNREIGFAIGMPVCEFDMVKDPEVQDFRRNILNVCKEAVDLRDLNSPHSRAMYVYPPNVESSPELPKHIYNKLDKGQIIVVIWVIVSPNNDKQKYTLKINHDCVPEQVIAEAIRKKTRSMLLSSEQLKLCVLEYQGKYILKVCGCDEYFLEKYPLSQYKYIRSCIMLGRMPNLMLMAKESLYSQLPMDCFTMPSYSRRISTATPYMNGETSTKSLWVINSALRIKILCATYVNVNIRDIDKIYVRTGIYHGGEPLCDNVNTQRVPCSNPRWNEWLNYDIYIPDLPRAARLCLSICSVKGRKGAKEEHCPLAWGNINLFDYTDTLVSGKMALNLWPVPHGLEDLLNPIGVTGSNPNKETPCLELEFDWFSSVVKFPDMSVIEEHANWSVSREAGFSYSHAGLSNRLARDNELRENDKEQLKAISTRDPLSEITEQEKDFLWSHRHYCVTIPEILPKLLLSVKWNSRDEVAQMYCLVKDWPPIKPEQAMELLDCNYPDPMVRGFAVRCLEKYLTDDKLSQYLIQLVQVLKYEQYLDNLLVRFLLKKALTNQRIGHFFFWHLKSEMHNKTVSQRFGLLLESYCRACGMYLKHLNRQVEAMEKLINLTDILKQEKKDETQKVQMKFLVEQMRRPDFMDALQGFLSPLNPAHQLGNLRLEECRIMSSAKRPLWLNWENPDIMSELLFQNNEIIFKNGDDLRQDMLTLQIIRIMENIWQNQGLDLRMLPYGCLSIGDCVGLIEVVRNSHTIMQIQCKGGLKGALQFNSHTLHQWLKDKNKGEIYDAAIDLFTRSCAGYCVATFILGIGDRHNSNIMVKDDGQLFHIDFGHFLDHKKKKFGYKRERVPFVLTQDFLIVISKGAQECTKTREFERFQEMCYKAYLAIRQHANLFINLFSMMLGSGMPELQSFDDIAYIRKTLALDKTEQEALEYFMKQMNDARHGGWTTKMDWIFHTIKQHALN
# Sequence (P27986 whole entry partner): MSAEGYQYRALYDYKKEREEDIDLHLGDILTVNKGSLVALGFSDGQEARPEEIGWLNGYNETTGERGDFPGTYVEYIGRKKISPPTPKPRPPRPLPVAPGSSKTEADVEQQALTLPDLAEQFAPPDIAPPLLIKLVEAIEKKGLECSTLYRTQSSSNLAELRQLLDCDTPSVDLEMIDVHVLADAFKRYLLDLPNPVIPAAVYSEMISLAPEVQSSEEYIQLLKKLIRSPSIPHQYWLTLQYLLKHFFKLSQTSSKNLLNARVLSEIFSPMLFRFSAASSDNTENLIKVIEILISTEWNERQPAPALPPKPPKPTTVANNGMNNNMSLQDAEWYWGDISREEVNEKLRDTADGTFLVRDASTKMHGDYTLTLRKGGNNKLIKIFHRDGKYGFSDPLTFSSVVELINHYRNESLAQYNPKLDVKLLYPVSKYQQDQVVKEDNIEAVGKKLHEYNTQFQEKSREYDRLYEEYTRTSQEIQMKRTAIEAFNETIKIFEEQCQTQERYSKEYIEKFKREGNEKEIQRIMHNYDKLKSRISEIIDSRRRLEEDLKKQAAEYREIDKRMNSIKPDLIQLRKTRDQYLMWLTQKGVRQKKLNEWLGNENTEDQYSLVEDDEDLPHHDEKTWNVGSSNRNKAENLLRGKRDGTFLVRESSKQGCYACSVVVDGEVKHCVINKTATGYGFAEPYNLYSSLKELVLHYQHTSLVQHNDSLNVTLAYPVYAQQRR
# assay procedure: ADP-Glo Biochemical PIK3CA Kinase Assay
pIC50: −log10 of the molar value.

{"molecule": "O=C1NC(c2cc(F)ccc2Cl)c2c1cc(-c1ccc3ncnn3c1)cc2N1CCN(C(=O)C(F)(F)F)CC1 (stereo not shown)", "target system": "H1047R PIK3CA enzyme (Homo sapiens, UniProt P42336, H1047R)", "pIC50": "4.00 to 5.00"}
{"molecule": "CC1(F)CN(c2cc(NC(=O)c3cc(F)cc(C(F)(F)F)c3)c3c(n2)C(=O)NC3c2cc(F)ccc2Cl)C1 (stereo not shown)", "target system": "H1047R PIK3CA enzyme (Homo sapiens, UniProt P42336, H1047R)", "pIC50": "6.30 to 7.00"}
{"molecule": "O=C(Nc1cc(-n2cnc3ncccc32)cc2c1C(c1cc(F)ccc1Cl)NC2=O)c1cc(F)cc(C(F)(F)F)c1 (stereo not shown)", "target system": "H1047R PIK3CA enzyme (Homo sapiens, UniProt P42336, H1047R)", "pIC50": "≥ 7.00"}
{"molecule": "CN(C)S(=O)(=O)n1nccc1-c1cc(NC(=O)c2cc(F)cc(C(F)(F)F)c2)c2c(c1)C(=O)NC2c1cc(F)ccc1Cl (stereo not shown)", "target system": "H1047R PIK3CA enzyme (Homo sapiens, UniProt P42336, H1047R)", "pIC50": "≥ 7.00"}
{"molecule": "O=C1N[C@H](c2cc(F)ccc2Cl)c2c(NC(=O)c3csc4ccccc34)cc(-c3ccc4ncnn4c3)cc21", "target system": "H1047R PIK3CA enzyme (Homo sapiens, UniProt P42336, H1047R)", "pIC50": "5.00 to 6.00"}
{"molecule": "O=C(Nc1cc(CO)cc2c1C(c1cc(F)ccc1Cl)NC2=O)c1cc(F)cc(C(F)(F)F)c1 (stereo not shown)", "target system": "H1047R PIK3CA enzyme (Homo sapiens, UniProt P42336, H1047R)", "pIC50": "≥ 7.00"}
{"molecule": "N#CC1(CNc2cc(NC(=O)c3cc(F)cc(C(F)(F)F)c3)c3c(c2)C(=O)N[C@@H]3c2cc(F)ccc2Cl)CC1", "target system": "H1047R PIK3CA enzyme (Homo sapiens, UniProt P42336, H1047R)", "pIC50": "6.30 to 7.00"}

* * *

A collection of compounds and their measured IC50
# target system: H1047R PIK3CA enzyme (Homo sapiens, UniProt P42336, H1047R)
# assay procedure: ADP-Glo Biochemical PIK3CA Kinase Assay

{"compound": "O=C1NC(c2cc(F)ccc2Cl)c2c(NC(=O)[C@H]3C[C@@H](O)C[C@@H](C(F)(F)F)C3)cc(Br)cc21 (some centres unmarked)", "IC50": "10000 to 100000 nM"}
{"compound": "CS(=O)(=O)Oc1cc(NC(=O)c2cc(F)cc(C(F)(F)F)c2)c2c(c1)C(=O)NC2c1cc(F)ccc1Cl (centres unmarked)", "IC50": "≤ 100 nM"}
{"compound": "COCC(=O)Nc1cc(NC(=O)c2cc(F)cc(C(F)(F)F)c2)c2c(c1)C(=O)NC2c1cc(F)ccc1Cl (centres unmarked)", "IC50": "≤ 100 nM"}
{"compound": "O=C1NC(c2cc(F)ccc2Cl)c2c(OCc3ccccc3)cc(-c3ccc4ncnn4c3)cc21 (centres unmarked)", "IC50": "10000 to 100000 nM"}
{"compound": "O=C(Nc1cc(NCC(F)F)cc2c1C(c1cc(F)ccc1Cl)NC2=O)c1cc(F)cc(C(F)(F)F)c1 (centres unmarked)", "IC50": "≤ 100 nM"}
{"compound": "N#CCc1cc(NC(=O)N2C[C@](O)(C(F)(F)F)c3ccccc32)c2c(c1)C(=O)N[C@@H]2c1cc(F)ccc1Cl (single isomer, unassigned)", "IC50": "≤ 100 nM"}
{"compound": "N#CCOc1ncc(-c2cc(NC(=O)c3cc(F)cc(C(F)(F)F)c3)c3c(c2)C(=O)NC3c2cc(F)ccc2Cl)cn1 (centres unmarked)", "IC50": "≤ 100 nM"}
{"compound": "O=C(Nc1cc(C2=CN3CCN=C3C=C2)cc2c1[C@H](c1cc(F)ccc1Cl)NC2=O)c1cc(F)cc(C(F)(F)F)c1", "IC50": "≤ 100 nM"}
{"compound": "CC(C)Cc1cc(NC(=O)c2cc(F)cc(C(F)(F)F)c2)c2c(c1)C(=O)NC2c1cc(F)ccc1Cl (centres unmarked)", "IC50": "≤ 100 nM"}
{"compound": "O=C(Nc1cc(-c2cccc3cccnc23)cc2c1C(c1cc(F)ccc1Cl)NC2=O)c1cc(F)cc(C(F)(F)F)c1 (centres unmarked)", "IC50": "≤ 100 nM"}
{"compound": "Cc1ncc(-c2cc(NC(=O)c3cc(F)cc(C(F)(F)F)c3)c3c(n2)C(=O)NC3c2cc(F)ccc2Cl)cn1 (centres unmarked)", "IC50": "≤ 100 nM"}
{"compound": "COc1ccc2snc(C(=O)Nc3cccc4c3C(c3ccccc3C)NC4=O)c2c1 (centres unmarked)", "IC50": "10000 to 100000 nM"}
{"compound": "O=C1Cc2ccc(-c3cc(NC(=O)c4cc(F)cc(C(F)(F)F)c4)c4c(c3)C(=O)NC4c3cc(F)ccc3Cl)cc2N1 (centres unmarked)", "IC50": "≤ 100 nM"}
{"compound": "CC(C)[C@@]1(O)CN(C(=O)Nc2cccc3c2[C@@H](c2cc(F)ccc2Cl)NC3=O)c2ccc(F)cc21 (single isomer, unassigned)", "IC50": "100 to 500 nM"}
{"compound": "O=C(Nc1cc(N[C@H]2C[C@H](O)C2)cc2c1C(c1cc(F)ccc1Cl)NC2=O)c1cc(F)cc(C(F)(F)F)c1 (single isomer, unassigned)", "IC50": "≤ 100 nM"}
{"compound": "Cn1nc2ccccc2c1Nc1cc(-c2ccc3ncnn3c2)cc2c1C(c1cc(F)ccc1Cl)NC2=O (centres unmarked)", "IC50": "10000 to 100000 nM"}
{"compound": "O=C(Nc1cc(Br)cc2c1C(c1cc(F)ccc1Cl)NC2=O)c1cc(F)ccc1Cl (centres unmarked)", "IC50": "10000 to 100000 nM"}
{"compound": "O=C1N[C@H](c2cc(F)ccc2Cl)c2c(NC(=O)N3C[C@@H](O)c4c(F)cccc43)cccc21 (single isomer, unassigned)", "IC50": "1000 to 10000 nM"}
{"compound": "Cc1ccccc1C1NC(=O)c2cc(C(C)C)cc(NC(=O)c3cc(F)cc(C(F)(F)F)c3)c21 (centres unmarked)", "IC50": "100 to 500 nM"}
{"compound": "CC12CC3CC(F)(C1)CC(C(=O)Nc1cc(Br)cc4c1C(c1cc(F)ccc1Cl)NC4=O)(C3)C2 (centres unmarked)", "IC50": "100 to 500 nM"}
{"compound": "C[C@H]([C@H]1C[C@H](O)CN1C(=O)Nc1cccc2c1[C@H](c1cc(F)ccc1Cl)NC2=O)C(F)(F)F (single isomer, unassigned)", "IC50": "10000 to 100000 nM"}
{"compound": "O=C(Nc1cc(NC(=O)c2cc(F)cc(C(F)(F)F)c2)c2c(c1)C(=O)NC2c1cc(F)ccc1Cl)c1cccnc1 (centres unmarked)", "IC50": "≤ 100 nM"}
{"compound": "NCCc1cc(NC(=O)N2C[C@H](O)c3cc(F)ccc32)c2c(c1)C(=O)N[C@H]2c1cc(F)ccc1Cl (single isomer, unassigned)", "IC50": "1000 to 10000 nM"}
{"compound": "O=C1N[C@@H](c2cc(F)ccc2Cl)c2c(NC(=O)c3csc4ccccc34)cc(-c3ccc4ncnn4c3)cc21", "IC50": "≤ 100 nM"}
{"compound": "O=C(Nc1cc(-c2cn[nH]c2)nc2c1C(c1cc(F)ccc1Cl)NC2=O)c1cc(F)cc(Cl)c1 (centres unmarked)", "IC50": "100 to 500 nM"}
{"compound": "O=C(Nc1cc(-c2cncnc2)cc2c1[C@@H](c1cc(F)ccc1Cl)NC2=O)c1cc(F)cc(C(F)(F)F)c1", "IC50": "500 to 1000 nM"}
